system: human orexin-2 receptor (hOX2R) (Homo sapiens)
Sequence (O43614 whole entry): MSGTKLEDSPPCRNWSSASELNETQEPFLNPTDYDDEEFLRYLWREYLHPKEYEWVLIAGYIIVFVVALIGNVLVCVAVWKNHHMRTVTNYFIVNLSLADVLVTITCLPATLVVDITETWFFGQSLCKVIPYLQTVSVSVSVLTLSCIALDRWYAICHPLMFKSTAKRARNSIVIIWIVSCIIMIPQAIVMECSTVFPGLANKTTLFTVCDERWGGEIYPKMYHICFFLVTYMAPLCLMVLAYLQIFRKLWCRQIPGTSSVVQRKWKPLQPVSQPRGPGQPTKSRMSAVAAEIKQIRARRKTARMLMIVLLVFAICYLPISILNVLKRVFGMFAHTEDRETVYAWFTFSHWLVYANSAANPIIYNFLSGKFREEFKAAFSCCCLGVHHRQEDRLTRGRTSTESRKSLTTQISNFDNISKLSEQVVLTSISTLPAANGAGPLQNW
assay-notes: FLIPR Ca2+ Flux Assay, hOX2R
experimental-context: CHO cells expressing hOX2R; agonist Ala-6,12 human orexin-A 70 pM
result-type: IC50 (nM)

[[record]]
structure_notation = "COc1ccc(C(=O)N2C[C@H](Oc3nccc(C(F)(F)F)c3F)CC[C@H]2C)c(-n2nccn2)n1"
system = "human orexin-2 receptor (hOX2R) (Homo sapiens)"
recorded_number = 105


[I] C[C@@H]1CC[C@@H](Oc2cccc(F)c2)CN1C(=O)c1ccccc1-n1nccn1
[II] Cc1c(I)ccnc1O[C@@H]1CC[C@@H](C)N(C(=O)c2ccccc2-n2nccn2)C1
[III] COc1ccc(C(=O)N2C[C@H](Oc3cc(F)ccn3)CC[C@H]2C)c(-n2nccn2)n1
[IV] COc1ccc(C(=O)N2C[C@H](Oc3cc(Br)ccn3)CC[C@H]2C)c(-n2nccn2)n1
[V] C[C@@H]1CC[C@@H](Oc2cc(C(F)(F)F)ccn2)CN1C(=O)c1ccccc1-n1nccn1
Q) Highest IC50 first, then in falling order down to the smallest. List each label, following the requested order.
A) III, I, IV, V, II

---

system: UniProt O43613
assay-notes: FLIPR Ca2+ Flux Assay, hOX1R
experimental-context: CHO cells expressing hOX1R; agonist Ala-6,12 human orexin-A 70 pM
result-type: IC50 (nM)

Take a look at these entries with their results.
[[record]]
structure_notation = "C[C@@H]1CC[C@@H](Oc2cc(F)ccn2)CN1C(=O)c1ccccc1-n1ncnn1"
system = "UniProt O43613"
recorded_number = 3850

[[record]]
structure_notation = "C[C@@H]1CC[C@@H](Oc2cc(I)ccn2)CN1C(=O)c1ccccc1-n1nccn1"
system = "UniProt O43613"
recorded_number = 414

[[record]]
structure_notation = "C[C@@H]1CC[C@@H](Oc2cc(F)ccn2)CN1C(=O)c1ccccc1-n1nccn1"
system = "UniProt O43613"
recorded_number = 2310


[a] C[C@@H]1CC[C@@H](Oc2cc(Br)ccn2)CN1C(=O)c1ccccc1-n1nccn1
[b] C[C@@H]1CC[C@@H](Oc2cc(C(F)(F)F)ccn2)CN1C(=O)c1ccccc1-n1nccn1
[c] COc1ccc(C(=O)N2C[C@H](Oc3nccc(I)c3OC)CC[C@H]2C)c(-n2nccn2)n1
[d] Cc1c(I)ccnc1O[C@@H]1CC[C@@H](C)N(C(=O)c2ccccc2-n2nccn2)C1
[e] C[C@@H]1CC[C@@H](Oc2nccc(C(F)(F)F)c2F)CN1C(=O)c1ccccc1-n1nccn1
Q) Sort the 5 molecules by IC50; largest first, smallest last. Lab note: final answer is the ordered label list.
A) c, e, b, a, d
(c: 2500 nM, e: 839 nM, b: 377 nM, a: 179 nM, d: 118 nM)

---

system: human orexin-1 receptor (hOX1R) (Homo sapiens)
Sequence (O43613 1-425): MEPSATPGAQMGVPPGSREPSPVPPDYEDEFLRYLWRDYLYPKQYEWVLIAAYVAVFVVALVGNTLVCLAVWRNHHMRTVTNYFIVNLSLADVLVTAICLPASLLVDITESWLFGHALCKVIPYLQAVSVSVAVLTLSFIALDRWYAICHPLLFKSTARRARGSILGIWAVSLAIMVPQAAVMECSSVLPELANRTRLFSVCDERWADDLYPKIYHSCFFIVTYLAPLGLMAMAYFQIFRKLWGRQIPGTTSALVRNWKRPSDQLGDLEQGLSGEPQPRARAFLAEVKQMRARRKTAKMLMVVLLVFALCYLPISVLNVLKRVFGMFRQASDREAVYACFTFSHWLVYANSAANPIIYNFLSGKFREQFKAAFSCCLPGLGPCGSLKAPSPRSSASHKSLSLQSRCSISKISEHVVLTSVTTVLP
assay-notes: FLIPR Ca2+ Flux Assay, hOX1R
experimental-context: CHO cells expressing hOX1R; agonist Ala-6,12 human orexin-A 70 pM
Description: The utility of the compounds in accordance with the present invention as orexin receptor OX1R and/or OX2R antagonists may be readily determined without undue experimentation by methodology well known in the art, including the “FLIPR Ca^2+ Flux Assay” (Okumura et al., Biochem. Biophys. Res. Comm. 2001, 280:976-981). […] The intrinsic orexin receptor antagonist activity of a compound of the present invention may be determined by these assays. […]
result-type: IC50 (nM)

[A] C[C@@H]1CC[C@@H](Oc2cc(Cl)ccn2)CN1C(=O)c1ccccc1-n1nccn1
[B] C[C@@H]1CC[C@@H](Oc2cc(C(F)(F)F)ccn2)CN1C(=O)c1ccccc1-n1ncnn1
Q) When the recorded IC50 values are compared, which is smaller: that of A or that of B ? # respond with the chosen item's label
A) A
(A: 548 nM, B: 828 nM)
